Each item that follows carries a reported TGI.
- System: CAKI-1 renal
- experimentDescription: NCI tumour cell line growth inhibition, 48 h
parameterMeasured: TGI

INSERT INTO measurements (testsmiles, result) VALUES
  ('CC1=C(C(=O)CC(=O)C(=O)Nc2ccccc2C(F)(F)F)Sc2ccccc2N1', '> 100 µM'),
  ('CN(C)c1ccc(/C=C2\Oc3ccccc3C2=O)cc1', '> 100 µM'),
  ('CCOc1cc2c[n+](C)c3c4cc(OC)c(OC)cc4ccc3c2cc1OC', '> 100 µM');

###

- Tested on: EKVX NSCLC
- experimentDescription: NCI tumour cell line growth inhibition, 48 h
TGI reference
parameterMeasured: TGI

INSERT INTO results (compound, result) VALUES
  ('O=C(C[Si](CC(=O)c1cccc(C(F)(F)F)c1)CC(=O)c1cccc(C(F)(F)F)c1)c1cccc(C(F)(F)F)c1', '11.5 µM'),
  ('S=C1NCN2CCN(CC2)CNC(=S)C(=S)NCN2CCN(CC2)CNC1=S', '> 100 µM'),
  ('COc1cccc2c1-c1ccccc1C2=O', '> 100 µM'),
  ('CC(=O)c1cc2c(c(O)c1C)C(=O)C(=O)c1c(O)cccc1-2', '3.36 µM'),
  ('COC(=O)[C@@H](Cc1ccccc1)NNC(=O)OC(C)(C)C', '> 100 µM'),
  ('O=c1[nH]nc(Cc2ccccc2)n1/N=C\CC/C=N\n1c(Cc2ccccc2)n[nH]c1=O', '> 100 µM'),
  ('COc1cccc(/C=N/Nc2ncnc3c2cnn3-c2cccc(OC)c2)c1', '> 25 µM'),
  ('CCCCOC(=O)NC(Nc1ccc(S(N)(=O)=O)cc1)(C(F)(F)F)C(F)(F)F', '> 100 µM'),
  ('O=C1OCC2=C1C(c1cccc(Cl)c1)c1cc3c(cc1N2CCO)OCO3 (stereo not drawn)', '> 87.2 µM'),
  ('O=C(CC1(O)C(=O)Nc2c(Cl)cc(Cl)cc21)c1ccco1 (stereo not drawn)', '> 100 µM'),
  ('Brc1ccc(N=NN2CCCC2)cc1', '> 100 µM'),
  ('CC(=O)Oc1ccc(O)c2c1CCCC2', '> 100 µM'),
  ('Cn1cc(NC(=O)[C@H]2CCC(N)=N2)cc1C(=O)NCCC(=N)N', '> 100 µM'),
  ('Nc1nc2c(nc(N)n2Cc2ccccc2)c(=O)[nH]1', '> 100 µM'),
  ('CC(=O)[CH-]C(C)=O.CC(=O)[CH-]C(C)=O.[CH2-]CCCCCCC.[CH2-]CCCCCCC.[Sn+4]', '35.4 µM'),
  ('O=C1C=CC(=O)c2ccc(=O)ccc21', '50.7 µM'),
  ('Cc1cc(O)c2c3c1C(=O)Oc1c(CO)c(O)c(C(=O)O)c(c1O3)C=NN=Cc1c3c(c(CO)c(O)c1C(=O)O)OC(=O)c1c(C)cc(O)c(c1O3)C=NN=C2', '> 100 µM'),
  ('O=C(OCCN1CCCCCC1)C(c1ccsc1)C1CCCCC1 (stereo not drawn)', '35.7 µM'),
  ('CCC(C(C)N1CC(=O)NC(=O)C1)N1CC(=O)NC(=O)C1 (stereo not drawn)', '> 30 µM'),
  ('CNC(=O)N(C1=NCC(C)S1)c1ccc(C)c(C)c1 (stereo not drawn)', '70.4 µM'),
  ('CCOP(=O)(OCC)/C(C#N)=C/c1cnc(C)[nH]1', '> 100 µM'),
  ('CC(=O)OC[C@]1(C)C=C2C(=O)[C@](C)(O)C3(CC3)C(C)=C2[C@H]1OC(=O)N(C)CCN(C)C(=O)OC(C)(C)C', '10.7 µM'),
  ('CN(C)c1ccc(/C=C/c2ccc3ccccc3[n+]2C)cc1', '5.85 µM');

Where do the numbers come from? From PubChem BioAssay (NCI).
